The origin of these recorded values is the DeepSol protein solubility set.

experiment: soluble on expression in E. coli; label from the status in PepcDB or PDB records
experimental_readout: soluble on expression in E. coli

• ENQYVMKLANSLFVQNGFHVNEEFLQMLKMYFNAEVNHVDFSQNVAVANSINKWVENYTNSLLKDLVSPEDFDGVTNLALINAVYFKGNWKSQFRPENTRTFSFTKDDESEVQIPMMYQQGEFYYGEFSDGSNEAGGIYQVLEIPYEGDEISMMLALSRQEVPLATLEPLLKAQLIEEWANSVKKQKVEVYLPRFTVEQEIDLKDILKALGVTEIFIKDANLTAMSDKKELFLSKAVHKSCIEVNEEGSEAAAASGMIAIS = soluble
• MNVFKTQTLLCPSGVHSRPEDHDETPFLCSKAQSVTVVAFLVARLLATLATHQMTSHTEGLRKGGGRKDTQLMKGQCSAIKVIFWPGCLPQPRMHSRLHIRSINKGGQLRPTGCNK = soluble
• MSSRLDQLVNKYNKSCENVSFAEHMILKDKYESLVIEHESLIKTLELLEKTHGFTVEDLVTKQKEALEKKEVIEKWENKFGEMEKKLKTVERSIEYIMSVDVQTGVDSGSANRPNVKNSYQRGIF = not soluble
• MGSDKIHHHHHHMEGRINPENWKDIFSDTLYIITDPNGVTAVIPEETAKTASSEPVKAAPADIKPTPVTTATPALPKIPSIPTPASATPNQQPAPVAAATAVLKPAGKYSNGILILMHVSYTMTPAQQEMLGKIVKAVQLDYNECGVLQVSAPVSLKEIETLKPRIVLSFGLPTDAFEPRMTKDLYSIQKHNSTIMLLADSLAKLETTVALKSNLWNAMKEMFGIK = not soluble

---

assay: soluble on expression in E. coli; label from the status in PepcDB or PDB records
experimental_readout: soluble on expression in E. coli

- MSPAQSKPVESMTVFNTEEVDTKKQPMFFGKPLGVQRYDSYKYPVFDKLTQQQLGYFWRPEEVSLQKDRGDYQQLTPEQKHIFTSNLKYQIMLDSVQGRAPGMAFAPYCSLPELEGCINVWQFMEMIHSRSYTYIIKNVYSDPSEVFDTIIKDTNILQRAESVTKSYDDFVNDAHEYDSGNAWKFAREGHPAGTLDRRELKRKLYRAIANVNILEGIRFYVSFACSFAFGENKLMEGSAKILSLISRDESQHLVITQQILKKWADGDDPEMQEIAKEEKSFVKDMFRNTVNEEKAWADYLFKEGSMIGLNARLLNNYVEWIANRRMKAIGLDPIYDQPLRNNPLPWTEHWLNSKGQQNAPQETEIESYVIGGIKQDVKGDSFAGFKL: not soluble
- MIKQIGTVAVYVEDQQKAKQFWTEKVGFDIAADHPMGPEASWLEVAPKGAETRLVIYPKAMMKGSEQMKASIVFECEDIFGTYEKMKTNGVEFLGEPNQMEWGTFVQFKDEDGNVFLLKE: not soluble

---

assay: soluble on expression in E. coli; label from the status in PepcDB or PDB records
experimental_readout: soluble on expression in E. coli

Please review the following examples before continuing.
* MSIRSWPAAERPRERLLELGAASLSDAELLAIFLRTGVAGKSAVDLARHLLNQFDGLRSLLDADQPAFTAQLGLGPAKFAQLQAVMEMARRHMAESLRRDSALENPAQVRNYLKAQLRHEPHEVFACLFLDNKHRVMTFEILFRGTINASYVHPRQVVKRALAHNAASLILCHNHPSGITTPSRSDIDLTKRLKEALKLVDVHVLDHVIVGDGEPLSMVEKGLM | not soluble
* MGHHHHHHSHVTNLNLATGIINRSSASAPPTLRPIISPSGPTWSTQSDPQAPENHSSSPGSSFI | not soluble
* MGSDKIHHHHHHMPTIAEKLKSRESDLTRAERQLSAAILDNYPIPGLGSITELAELAEVSTPTVARMVQKLGFSGYPEFQHALREELREIISNPVEKRAEQAPELPEGHMLNRYAVAVYDNIRATLENVNLEEFDTLCALLADTNSRVHIAGGRLSGTLAQNFYLHLQMIRRDVFMIPPRASWTHSVLDLLPGDTLILFDIRRYENATLLLAEMAHERGVKVVLFTDQWRSPIQKEATFTFAARIAVPSAWDSGVALLLLIESMIAKIQEDHWDTVKARNDELEAAFDRTRLFRKFT | not soluble
* MVGINNWSSNLDAYRILQEAQSLTEEPPHFDTAFPIEPESIAPPEHHNHRYVIGQEEHRVRRLAANRNKGRPSARAFGNARNNSTRN | not soluble
* VAWFTDEEGGRGRIEAGQLADLVVPDKDFFSCPEDDISFLVSELTMVGGRIVYAAGGFAALDDNPLPPAMPDWSPARTFKGYAAWGDPDGAGRHSLQRRAVAACGCANACGLHGHQHARAWGTALPVSDAKGFFGALGCSCWA | not soluble

Below are some sequences; for each one, tell me its soluble on expression in E. coli.
1. MSLNSKKETINIGCSLPLTGEGANYGRSVKEGVDLAIEEINQSEMFDLPLKVIYEDDKMDPREGVNAINKLITADNVPIIIGPFGSSITLAVAPIANKNKVVLLGASATADNIKDAGDYIFRITPPNSKQGNDVASFCFNSLNSKKAAIIYQTNDYGTTLKTAFESEYLKLGGEVLIVEGVDLGNKDFKTQILKIKSKQVDVVFFPLHVAESGNFLKQSKELGLNVKFISCDGAMVDDLLKLAGNAAEGTYYTSLALAYGMNDSLINSFNTNFKKKYNKEPDVYAAYYYEVTYILAHALKKANGNIGQIKEILYSINGENAYNGITGLTSFDTYGEVDKSFSIYVVSNNKFSLFKEGHHHHHH
2. SPAPPACDLRVLSKLLRDSHVLHSRLSQCPEVHPLPTPVLLPAVDFSLGEWKTQMEETKAQDILGAVTLLLEGVMAARGQLGPTCLSSLLGQLSGQVRLLLGALQSLLGTQLPPRGRTTAHKDPNAIFLSFQHLLRGKVRFLMLVGGSTLCVRRAPPTTAVPS

Result ::
1. soluble
2. soluble
